# credit: PubChem BioAssay (NCI)

Test system: ACHN renal
Assay: NCI-60 one-dose screen, 48 h (100 = growth as untreated, 0 = no growth, -100 = all killed)
Conditions: 10 µM unless noted
Procedure: Growth inhibition of the ACHN human tumor cell line is measured as a screen for anti-cancer activity. Cells are grown in 96 well plates and exposed to the test compound for 48 hours. Compounds are tested at a single concentration, which is 10^-5 M for most compounds. The reported endpoint is percent growth (GI% or GIPRCNT), where numbers from 0 - 100% represent growth inhibition, and numbers from -100% - 0 represent cell death. For example, a value of 40 represents 60% growth inhibition. […]
This is part of a sample that, as a whole, favours compounds with a hit. Of some 83,000 tested, about 20% had one in any assay.
measured.parameter: growth (%)

>>> quantitative_readout("CCCCCSc1ccc2nc(NC(=O)OCC)sc2c1")
39.7
>>> quantitative_readout("CC1=C(C)C[C@]2(C(=O)O[C@H]3CCCC[C@@H]32)[S@](=O)C1")
120
>>> quantitative_readout("O=[N+]([O-])c1ccc(-c2ncc(-c3ccc(O)cc3O)[nH]2)cc1")
106
>>> quantitative_readout("O=C(/C=C/c1ccc(Br)cc1)c1ccccc1")
100
>>> quantitative_readout("COc1cc(N)c2nccc(C)c2c1OC")
110
>>> quantitative_readout("Nc1cc2c(cc1Br)[nH]c(=O)c1ccccc12")
22.5
>>> quantitative_readout("CC(O)C(N)=O (stereo unspecified)")
104
>>> quantitative_readout("COc1cc2c(cc1OC)C(Cc1cc(OC)c(OC)cc1[N+](=O)[O-])=NCC2")
85.2
>>> quantitative_readout("COc1ccc(/C=C2\\SC(=O)N(Cc3cc(=O)oc4ccc(OC)cc34)C2=O)cc1")
92.7
>>> quantitative_readout("CC1=C(C)C(=O)C(C(C)C2=C(C)C(=O)C(C)=C(C)C2=O)=C(C)C1=O")
110
>>> quantitative_readout("COc1ccc(C(=O)c2no[n+]([O-])c2C(=O)c2ccc(OC)cc2)cc1")
-47
